Reference for the values: patent US20250368666A1

System: KG-1 cell line (FGFR 1-fusion)
Assay: Cancer cell line cell viability assay (Cell Titer-Glo), 72 hr
Assay type: cell-based
Measurement Parameters: Homo sapiens, KG-1, KG-1 cell line (FGFR1-fusion)
Value Kind: IC50

For orientation, consider the following solved cases.
{"Smiles Code": "C[C@@H](Oc1ccc2[nH]nc(-c3ccc(N4CC(N)(c5ccnn5C)C4)nn3)c2c1)c1c(Cl)cncc1Cl", "IC50": "50 to 200 nM"}
{"Smiles Code": "C[C@@H](Oc1ccc2[nH]nc(-c3cnc(N4CC(C)(NC5CS(=O)(=O)C5)C4)c(C#N)c3)c2c1)c1c(Cl)cncc1Cl", "IC50": "200 to 1000 nM"}

Then this molecule:
Query string: Provide IC50 value for the following molecule: `C[C@@H]1[C@@H](CS(C)(=O)=O)CN1c1ccc(-c2n[nH]c3ccc(O[C@H](C)c4c(Cl)cncc4Cl)cc23)cn1`
Result string: 50 to 200 nM

---

System Tested: FGFR3 (V555M) (Homo sapiens, UniProt P22607, V555M)
Construct: made in house; host or cells: E. coli (BL21-derived), T7 phage
Sequence (P22607 23-806 V555M): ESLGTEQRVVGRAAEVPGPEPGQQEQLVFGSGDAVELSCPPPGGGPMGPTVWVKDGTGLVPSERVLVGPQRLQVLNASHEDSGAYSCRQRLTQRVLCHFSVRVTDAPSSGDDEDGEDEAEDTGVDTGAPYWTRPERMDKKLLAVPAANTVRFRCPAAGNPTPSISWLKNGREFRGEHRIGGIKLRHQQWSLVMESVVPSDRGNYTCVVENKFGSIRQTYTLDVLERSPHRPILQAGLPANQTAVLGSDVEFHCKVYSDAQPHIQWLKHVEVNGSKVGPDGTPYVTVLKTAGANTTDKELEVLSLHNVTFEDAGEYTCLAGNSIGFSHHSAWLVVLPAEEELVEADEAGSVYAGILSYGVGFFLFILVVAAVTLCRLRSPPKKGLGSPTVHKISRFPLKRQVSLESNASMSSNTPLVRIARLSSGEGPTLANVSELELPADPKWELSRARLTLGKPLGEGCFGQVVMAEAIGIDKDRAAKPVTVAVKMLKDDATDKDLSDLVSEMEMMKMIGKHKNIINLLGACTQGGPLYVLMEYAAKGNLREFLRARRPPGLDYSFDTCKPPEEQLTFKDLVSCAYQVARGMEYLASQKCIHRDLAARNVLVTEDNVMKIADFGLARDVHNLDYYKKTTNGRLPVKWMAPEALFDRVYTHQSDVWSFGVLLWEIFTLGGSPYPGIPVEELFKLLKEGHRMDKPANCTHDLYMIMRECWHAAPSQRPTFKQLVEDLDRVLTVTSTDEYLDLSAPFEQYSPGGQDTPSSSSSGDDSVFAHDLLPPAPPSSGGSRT
Assay: Kinase binding assay (kinase-tagged T7 phage, affinity beads, qPCR), Kd
Measurement Parameters: V555M mutant; read-out: FGFR3 (V555M) (Kd nM)
Value Kind: Kd

For orientation, consider the following solved cases.
{"Smiles Code": "C[C@@H](Oc1ccc2[nH]nc(-c3cnc(N4CC(C)(N5CCP(C)(=O)CC5)C4)c(F)c3)c2c1)c1c(Cl)cncc1Cl", "Kd": "1 to 50 nM"}
{"Smiles Code": "COc1cc2[nH]nc(-c3cnc(N4CC(C)(N5CCCC5)C4)c(C#N)c3)c2cc1O[C@H](C)c1c(Cl)cncc1Cl", "Kd": "1 to 50 nM"}

Then this compound:
Query string: Provide Kd value for the following compound: `C[C@@H](Oc1ccc2[nH]nc(-c3cnc(N4CC(C)(NCC5(O)CC5)C4)c(C#N)c3)c2c1)c1c(Cl)cncc1Cl`
Result string: 1 to 50 nM

---

System Tested: FGFR1 (Homo sapiens)
Construct: made in house; host or cells: E. coli (BL21-derived), T7 phage
Sequence (P11362 22-822): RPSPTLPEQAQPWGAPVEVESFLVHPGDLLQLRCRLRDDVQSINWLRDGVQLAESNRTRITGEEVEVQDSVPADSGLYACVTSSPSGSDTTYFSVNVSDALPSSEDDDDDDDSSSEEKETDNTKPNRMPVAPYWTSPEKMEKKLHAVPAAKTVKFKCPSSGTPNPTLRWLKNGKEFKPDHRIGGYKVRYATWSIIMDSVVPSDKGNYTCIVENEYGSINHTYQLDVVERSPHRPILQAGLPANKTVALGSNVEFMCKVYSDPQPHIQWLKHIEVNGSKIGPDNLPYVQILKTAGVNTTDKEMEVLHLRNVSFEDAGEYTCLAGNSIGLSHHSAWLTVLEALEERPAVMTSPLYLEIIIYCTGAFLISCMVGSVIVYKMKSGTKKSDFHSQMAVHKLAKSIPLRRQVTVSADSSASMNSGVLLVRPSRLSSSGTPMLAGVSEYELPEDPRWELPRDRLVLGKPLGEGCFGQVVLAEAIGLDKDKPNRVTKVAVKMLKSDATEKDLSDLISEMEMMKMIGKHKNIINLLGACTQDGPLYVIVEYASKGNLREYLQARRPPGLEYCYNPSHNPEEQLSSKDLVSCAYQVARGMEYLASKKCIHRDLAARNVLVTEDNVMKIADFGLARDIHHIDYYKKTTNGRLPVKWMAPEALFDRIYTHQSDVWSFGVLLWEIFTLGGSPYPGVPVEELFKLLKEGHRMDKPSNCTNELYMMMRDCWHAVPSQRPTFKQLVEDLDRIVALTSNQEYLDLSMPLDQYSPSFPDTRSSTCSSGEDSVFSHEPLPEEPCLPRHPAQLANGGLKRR
Assay: Kinase binding assay (kinase-tagged T7 phage, affinity beads, qPCR), Kd
Measurement Parameters: read-out: FGFR1 (Kd nM)
Value Kind: Kd

{"Smiles Code": "CCCC1(N)CN(c2ncc(-c3n[nH]c4ccc(O[C@H](C)c5c(Cl)cncc5Cl)cc34)cc2F)C1", "Kd": "1 to 50 nM"}
{"Smiles Code": "COc1cc2[nH]nc(-c3cnc(N4CC(C)(N5CC(C)(O)C5)C4)c(C#N)c3)c2cc1O[C@H](C)c1c(Cl)cncc1Cl", "Kd": "1 to 50 nM"}
{"Smiles Code": "C[C@@H](Oc1cc2c(-c3cnc(N4CC(C)(N5CCC5)C4)c(F)c3)n[nH]c2cc1F)c1c(Cl)cncc1Cl", "Kd": "1 to 50 nM"}

Query string: Determine reported Kd for `CC(C)C1(N)CN(c2ncc(-c3n[nH]c4ccc(O[C@H](C)c5c(Cl)cncc5Cl)cc34)cc2F)C1` ; test system: FGFR1 (Homo sapiens).
Result string: 1 to 50 nM

Query string: Determine reported Kd for `CC(C)NC1(C)CN(c2ccc(-c3n[nH]c4ccc(O[C@H](C)c5c(Cl)cncc5Cl)cc34)nn2)C1` ; test system: FGFR1 (Homo sapiens).
Result string: 1 to 50 nM

Query string: Determine reported Kd for `CCC1(N)CN(c2ncc(-c3n[nH]c4cc(OC)c(O[C@H](C)c5c(Cl)cncc5Cl)cc34)cc2C#N)C1` ; test system: FGFR1 (Homo sapiens).
Result string: 1 to 50 nM

Query string: Determine reported Kd for `COc1cc2[nH]nc(-c3cnc(N4CC(C)(CS(C)(=O)=O)C4)c(F)c3)c2cc1O[C@H](C)c1c(Cl)cncc1Cl` ; test system: FGFR1 (Homo sapiens).
Result string: 1 to 50 nM
